Examples of binders with documented Kd follow.
assayed.target: HNF-1A DD-DBD (HNF-1A 1-279) (UniProt P20823 1-279)
Sequence (P20823 1-279): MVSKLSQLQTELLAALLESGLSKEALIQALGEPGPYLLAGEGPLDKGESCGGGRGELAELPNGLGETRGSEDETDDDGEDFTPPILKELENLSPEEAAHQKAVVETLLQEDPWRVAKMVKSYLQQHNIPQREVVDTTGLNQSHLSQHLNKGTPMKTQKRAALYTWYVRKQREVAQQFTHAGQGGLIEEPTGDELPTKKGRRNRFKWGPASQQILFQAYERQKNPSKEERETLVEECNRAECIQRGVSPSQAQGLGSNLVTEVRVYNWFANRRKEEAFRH
assay.comment: ITC; ITC: 20 mM HEPES pH 7.5, 200 mM NaCl, 1 mM TCEP, 30 C, 250 uM dsDNA into 50 uM protein; BLI: streptavidin sensor with BiotinTEG dsDNA, buffer not in material
details: protein: recombinant; tags: His6 removed by TEV; chain copies: 2; label: 5' BiotinTEG on forward strand (BLI only); blunt
readout.type: Kd (nM)

# binder, measurement.unit, assay.result
data = [
    ("P2 -169C>T (dsDNA) DNA 1: ACTGGTTACTCTTTAATGTAT DNA 2: ATACATTAAAGAGTAACCAGT", "nM", 1200),
    ("P2 -181G>T (dsDNA) DNA 1: ACTGTTTACTCTTTAACGTAT DNA 2: ATACGTTAAAGAGTAAACAGT", "nM", 700),
]

Cited source for all entries: paper PMC11382887
